# Lookup of reported ELISA keyed by entry
- measured.target: T1, PCSK9Δhelix (human, Chemically biotinylated in the phage ELISAs; the site is not given.)
- T1 construct: construct M1-Q692 with engineered TEV site, cleaved by TEV; also called His-PCSK9Δhelix; open groove PCSK9Δhelix
- T1 sequence (prodomain, as listed by the source mutant limits assumed, chain 1 of 2): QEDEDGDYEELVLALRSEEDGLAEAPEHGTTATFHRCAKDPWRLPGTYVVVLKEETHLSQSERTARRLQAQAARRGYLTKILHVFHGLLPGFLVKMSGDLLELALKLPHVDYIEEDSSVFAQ
- T1 sequence (chain, as listed by the source mutant limits assumed, chain 2 of 2): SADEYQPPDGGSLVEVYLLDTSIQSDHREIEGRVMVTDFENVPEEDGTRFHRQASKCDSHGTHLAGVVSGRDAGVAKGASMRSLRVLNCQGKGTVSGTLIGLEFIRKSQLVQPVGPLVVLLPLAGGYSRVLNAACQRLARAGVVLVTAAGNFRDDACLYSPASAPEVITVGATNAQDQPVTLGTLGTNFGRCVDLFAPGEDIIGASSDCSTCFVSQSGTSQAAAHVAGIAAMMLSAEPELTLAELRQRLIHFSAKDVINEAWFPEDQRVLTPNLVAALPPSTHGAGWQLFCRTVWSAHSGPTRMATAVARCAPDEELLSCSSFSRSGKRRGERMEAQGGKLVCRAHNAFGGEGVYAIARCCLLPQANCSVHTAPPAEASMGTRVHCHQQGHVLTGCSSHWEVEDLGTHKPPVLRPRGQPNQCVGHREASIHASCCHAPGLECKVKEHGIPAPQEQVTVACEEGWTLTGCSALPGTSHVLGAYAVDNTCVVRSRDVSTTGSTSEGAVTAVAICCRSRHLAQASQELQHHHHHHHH
- protocol.summary: phage spot ELISA
readout.name: ELISA

INSERT INTO assay_data (binder, reported_value) VALUES
  ('SGGCVKYRGSVSCQESKT [SEQ ID NO 369]', 0.378),
  ('SGSYRGAWSVFGGSTD [SEQ ID NO 372]', 1.04),
  ('SGLAPTVSDS [SEQ ID NO 375]', 0.55),
  ('SGNCWSSLRGICENLG [SEQ ID NO 367]', 0.601),
  ('SGACLNHFVSGNMIRC [SEQ ID NO 371]', 0.649),
  ('SGHASKGMVLSG [SEQ ID NO 381]', 1.64),
  ('SGDTRSQLSH [SEQ ID NO 376]', 1.24),
  ('SGTPEMPAML [SEQ ID NO 374]', 2.25),
  ('SGPRTYLRGLVD [SEQ ID NO 366]', 0.375),
  ('SGEHQFYSYRGVDVYR [SEQ ID NO 370]', 0.461),
  ('SGAGKLDLSG [SEQ ID NO 377]', 1.75),
  ('SGRNGSGYINRGIEIW [SEQ ID NO 380]', 0.638),
  ('SGMVYVDRGVRVFT [SEQ ID NO 368]', 1.01),
  ('SGNALWNHDRLT [SEQ ID NO 379]', 0.665);
